- system_name: COP9 signalosome complex subunit 5 (Homo sapiens)
- protocol_notes: inhibitors of Csn5 cullin deneddylation – biochemical, fluorescence polarization, Cul-Nedd8-OG substrate, selectivity assay for RPN11 inhibitor project, SAR follow-up (AID 652285)
- condition_description: Csn5 deneddylation of SCF-Nedd8-OG
Would you kindly list IC50 for each of these compounds?

Exercise: Please state recorded IC50 (tested on COP9 signalosome complex subunit 5 (Homo sapiens)) of COC(=O)[C@@H](NC(=O)c1cnc2c(SSc3cccc4cc(C(=O)N[C@H](C(=O)OC)C(C)C)cnc34)cccc2c1)C(C)C
Key: 7.62 µM

Exercise: Please state recorded IC50 (tested on COP9 signalosome complex subunit 5 (Homo sapiens)) of COC(=O)[C@H](CO)NC(=O)c1cnc2c(SSc3cccc4cc(C(=O)N[C@@H](CO)C(=O)OC)cnc34)cccc2c1
Key: 42.7 µM

Exercise: Please state recorded IC50 (tested on COP9 signalosome complex subunit 5 (Homo sapiens)) of O=C(Sc1cccc2cccnc12)c1ccccc1OC(F)(F)F
Key: 9.48 µM

Exercise: Please state recorded IC50 (tested on COP9 signalosome complex subunit 5 (Homo sapiens)) of O=C(Sc1cccc2cccnc12)c1ccccc1
Key: 4.77 µM

Exercise: Please state recorded IC50 (tested on COP9 signalosome complex subunit 5 (Homo sapiens)) of O=C(Sc1cccc2cccnc12)c1ccccc1[N+](=O)[O-]
Key: 8.24 µM

Exercise: Please state recorded IC50 (tested on COP9 signalosome complex subunit 5 (Homo sapiens)) of O=C(Sc1cccc2cccnc12)c1ccc(F)c(F)c1
Key: 5.36 µM

Exercise: Please state recorded IC50 (tested on COP9 signalosome complex subunit 5 (Homo sapiens)) of O=C(Sc1cccc2cccnc12)c1cccc2ccccc12
Key: 8.9 µM

Exercise: Please state recorded IC50 (tested on COP9 signalosome complex subunit 5 (Homo sapiens)) of O=C(O)[C@@H]1CCCN1C(=O)c1cnc2c(SSc3cccc4cc(C(=O)N5CCC[C@H]5C(=O)O)cnc34)cccc2c1
Key: 5.4 µM

Exercise: Please state recorded IC50 (tested on COP9 signalosome complex subunit 5 (Homo sapiens)) of C[C@@H](C(=O)O)N(C)C(=O)c1cnc2c(SSc3cccc4cc(C(=O)N(C)[C@@H](C)C(=O)O)cnc34)cccc2c1
Key: 16.6 µM

----------
- system_name: COP9 signalosome complex subunit 5 (Homo sapiens)
- protocol_notes: inhibitors of Csn5 cullin deneddylation – biochemical, fluorescence polarization, Cul-Nedd8-OG substrate, selectivity assay for RPN11 inhibitor project, SAR follow-up (AID 652285)
- condition_description: Csn5 deneddylation of SCF-Nedd8-OG
Activity calls are given as the source filed them.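 The calls were made as follows: active = IC50 at or below 60 µM; inactive = the rest.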
Write down the outcome that applies. Available outcomes: active, inactive

Exercise: Per the records of this test, what outcome belongs to O=C(Sc1cccc2cccnc12)c1ccc([N+](=O)[O-])cc1 ?
Key: active

Exercise: Per the records of this test, what outcome belongs to CC(C)(C)OC(=O)CCNC(=O)c1cnc2c(SSc3cccc4cc(C(=O)NCCC(=O)OC(C)(C)C)cnc34)cccc2c1 ?
Key: active

Exercise: Per the records of this test, what outcome belongs to COC(=O)[C@H](C)NC(=O)c1cnc2c(SSc3cccc4cc(C(=O)N[C@@H](C)C(=O)OC)cnc34)cccc2c1 ?
Key: active

Exercise: Per the records of this test, what outcome belongs to Cc1ccccc1C(=O)Sc1cccc2cccnc12 ?
Key: active

Exercise: Per the records of this test, what outcome belongs to O=C(Sc1cccc2cccnc12)c1ccc(F)cc1F ?
Key: inactive

Exercise: Per the records of this test, what outcome belongs to COc1ccc(C(=O)Sc2cccc3cccnc23)cc1OC ?
Key: active

Exercise: Per the records of this test, what outcome belongs to O=C(Sc1cccc2cccnc12)c1cccc(Cl)c1 ?
Key: active

Exercise: Per the records of this test, what outcome belongs to O=C(Sc1cccc2cccnc12)c1ccccc1F ?
Key: inactive

Exercise: Per the records of this test, what outcome belongs to COC(=O)[C@H](CC(C)C)NC(=O)c1cnc2c(SSc3cccc4cc(C(=O)N[C@@H](CC(C)C)C(=O)OC)cnc34)cccc2c1 ?
Key: active

Exercise: Per the records of this test, what outcome belongs to O=C(Sc1cccc2cccnc12)c1ccc2c(c1)OCO2 ?
Key: active

Exercise: Per the records of this test, what outcome belongs to CC(C)C[C@H](NC(=O)c1cnc2c(SSc3cccc4cc(C(=O)N[C@@H](CC(C)C)C(=O)O)cnc34)cccc2c1)C(=O)O ?
Key: active

Exercise: Per the records of this test, what outcome belongs to O=C(Sc1cccc2cccnc12)c1ccc(F)cc1 ?
Key: active

Exercise: Per the records of this test, what outcome belongs to COc1ccc(C(=O)Sc2cccc3cccnc23)cc1 ?
Key: active

Exercise: Per the records of this test, what outcome belongs to O=C(Sc1cccc2cccnc12)c1ccccc1I ?
Key: active

Exercise: Per the records of this test, what outcome belongs to O=C(Sc1cccc2cccnc12)c1cccc(C(F)(F)F)c1 ?
Key: inactive

Exercise: Per the records of this test, what outcome belongs to O=C(Sc1cccc2cccnc12)c1c(Cl)cccc1Cl ?
Key: active

Exercise: Per the records of this test, what outcome belongs to CC[C@@H](C)[C@H](NC(=O)c1cnc2c(SSc3cccc4cc(C(=O)N[C@H](C(=O)O)[C@H](C)CC)cnc34)cccc2c1)C(=O)O ?
Key: active

Exercise: Per the records of this test, what outcome belongs to COc1ccc(C(=O)Sc2cccc3cccnc23)cc1F ?
Key: active

Exercise: Per the records of this test, what outcome belongs to COC(=O)[C@H](C)N(C)C(=O)c1cnc2c(SSc3cccc4cc(C(=O)N(C)[C@@H](C)C(=O)OC)cnc34)cccc2c1 ?
Key: active

Exercise: Per the records of this test, what outcome belongs to O=C(Sc1cccc2cccnc12)c1ccccc1Cl ?
Key: active

Exercise: Per the records of this test, what outcome belongs to CCCc1ccc(C(=O)Sc2cccc3cccnc23)cc1 ?
Key: active

Exercise: Per the records of this test, what outcome belongs to Cc1ccc(C(=O)Sc2cccc3cccnc23)cc1 ?
Key: inactive

Exercise: Per the records of this test, what outcome belongs to O=C(Sc1cccc2cccnc12)c1ccc(C(F)(F)F)cc1 ?
Key: active

Exercise: Per the records of this test, what outcome belongs to N#Cc1ccc(C(=O)Sc2cccc3cccnc23)cc1 ?
Key: inactive

Exercise: Per the records of this test, what outcome belongs to COC(=O)[C@H](C)NC(=O)c1ccnc2c(SSc3cccc4c(C(=O)N[C@@H](C)C(=O)OC)ccnc34)cccc12 ?
Key: active

Exercise: Per the records of this test, what outcome belongs to O=C(Sc1cccc2cccnc12)c1ccccc1Br ?
Key: active

Exercise: Per the records of this test, what outcome belongs to N#Cc1cccc(C(=O)Sc2cccc3cccnc23)c1 ?
Key: inactive
